# Tested on: Mycobacterium tuberculosis Erdman (autoluminescent)
# assay.name: Einf, fitted maximum growth inhibition of three-drug combination (fraction); higher = stronger maximal inhibition
# study.conditions: in vitro model: acidic pH 5.7; time point: terminal (~4-5 doublings, model-specific)
In this section we review reported Einf values for a set of compounds.
Reply: number alone, nothing else.

Please review the following examples before continuing.
Name the recorded Einf for COc1c(N2C[C@@H]3CCCN[C@@H]3C2)c(F)cc2c(=O)c(C(=O)O)cn(C3CC3)c12 [moxifloxacin] + O=[N+]([O-])c1cn2c(n1)OC[C@@H](OCc1ccc(OC(F)(F)F)cc1)C2 [pretomanid] + CO[C@H]1/C=C/O[C@@]2(C)Oc3c(C)c(O)c4c(O)c(c(/C=N/N5CCN(C6CCCC6)CC5)c(O)c4c3C2=O)NC(=O)/C(C)=C\C=C\[C@H](C)[C@H](O)[C@@H](C)[C@@H](O)[C@@H](C)[C@H](OC(C)=O)[C@@H]1C [rifapentine] .
0.971

Name the recorded Einf for CC[C@@H](CO)NCCN[C@@H](CC)CO [ethambutol] + CC(=O)NC[C@H]1CN(c2ccc(N3CCOCC3)c(F)c2)C(=O)O1 [linezolid] + COc1c(N2C[C@@H]3CCCN[C@@H]3C2)c(F)cc2c(=O)c(C(=O)O)cn(C3CC3)c12 [moxifloxacin] .
0.956

// moving on: another record for Einf
Name the recorded Einf for CC[C@@H](CO)NCCN[C@@H](CC)CO [ethambutol] + CC(=O)NC[C@H]1CN(c2ccc(N3CCOCC3)c(F)c2)C(=O)O1 [linezolid] + NC(=O)c1cnccn1 [pyrazinamide] .
0.963
